Every entry's value here was drawn from ChEMBL document CHEMBL6134926.

molecular target: SOS1-KRAS (Homo sapiens, UniProt P01116, G12D); assay: Inhibition of GST-tagged KRAS G12D mutant (2 to 169 residues) (unknown origin)/SOS1 catalytic domain (564 to 1069 residues) (unknown origin) protein-protein interaction preincubated with compound for 90 mins followed by SOS1 and GTP-DY-647P1 addition and measured after 30 mins by fluorescence based nucleotide exchange assay
pIC50: −log10 of the molar value.
assay endpoint: pIC50

Here is how some compounds turned out for pIC50.
1) C[C@H](c1cccnc1N)N(C)c1nc(OC[C@@]23CCCN2C[C@H](F)C3)nc(N2CC(C)(c3csc(N)c3C#N)C2)c1C#N | > 8.00
2) CC1(c2csc(N)c2C#N)CN(c2nc(OC[C@@]34CCCN3C[C@H](F)C4)nc(N3C[C@H]4CC[C@@H](C3)N4)c2C#N)C1 | > 8.00
3) CN(C)C(=O)c1nn2c(c1Cl)CN(c1nc(OC[C@@]34CCCN3C[C@H](F)C4)nc(N3CC(c4csc(N)c4C#N)C3)c1C#N)CCC2 | > 8.00

Enquiry: Need pIC50, item CN(C)C(=O)c1nn2c(c1Cl)CN(c1cc(N3CC(C)(c4csc(N)c4C#N)C3)nc(OC[C@@]34CCCN3C[C@H](F)C4)n1)CCC2
Return: 8.00

Enquiry: Need pIC50, item CN(C)C(=O)c1nn2c(c1Cl)CN(c1nc(OC[C@@]34CCCN3C[C@H](F)C4)nc(N3CC(c4c(Cl)sc(N)c4C#N)C3)c1C#N)CCC2
Return: > 8.00

Enquiry: Need pIC50, item CN(C)C(=O)c1nn2c(c1Cl)CN(c1nc(OC[C@@]34CCCN3C[C@H](F)C4)nc(N3CCC(c4c(Cl)sc(N)c4C#N)C3)c1C#N)CCC2 (stereo partly specified)
Return: > 8.00
